Where do these numbers come from? They come from PubChem BioAssay (NCI).

# Test system: HCT-116 colon
# TEST_DETAILS: NCI-60 one-dose screen, 48 h (100 = growth as untreated, 0 = no growth, -100 = all killed)
# PARTICULARS: 10 µM unless noted
# Procedure: Growth inhibition of the HCT-116 human tumor cell line is measured as a screen for anti-cancer activity. Cells are grown in 96 well plates and exposed to the test compound for 48 hours. Compounds are tested at a single concentration, which is 10^-5 M for most compounds. The reported endpoint is percent growth (GI% or GIPRCNT), where numbers from 0 - 100% represent growth inhibition, and numbers from -100% - 0 represent cell death. For example, a value of 40 represents 60% growth inhibition. […]
The panel holds about 83,000 compounds, 20% with a hit somewhere; the sample as a whole holds those more often.
The entries below are paired with their reported growth.
Just the number please, in %, no unit attached.

[
  {
    "MOLECULE": "O=C(N/N=C/c1cccc(O)c1)c1ccccc1Nc1cccc(C(F)(F)F)c1",
    "TARGET": "HCT-116 colon",
    "growth, %": 83.4
  },
  {
    "MOLECULE": "Cc1c([N+](=O)[O-])cc(C(C)(C)C)cc1[N+](=O)[O-]",
    "TARGET": "HCT-116 colon",
    "growth, %": 87.3
  },
  {
    "MOLECULE": "CC(=O)OC1CCC2(C)C(CCC3C4CC=C(C(C)=O)C4(C)OC(=O)CC32)C1 (stereo not given)",
    "TARGET": "HCT-116 colon",
    "growth, %": -98.9
  },
  {
    "MOLECULE": "COc1cc(/C=C/C(=O)c2ccc(Nc3ncnc4ccccc34)cc2)cc(OC)c1",
    "TARGET": "HCT-116 colon",
    "growth, %": -87.3
  },
  {
    "MOLECULE": "Cc1cccc(Oc2ccc(Nc3ncnc4ccc(NC(=O)CNCCO)cc34)cc2Cl)c1",
    "TARGET": "HCT-116 colon",
    "growth, %": 37.2
  }
]

## Input Fill in the blank: the reported growth of COc1cc(C2CC(c3cccc(Nc4ccncc4)c3)=NN2C(C)=O)cc(OC)c1OC (stereo not given) is ____.
## Output 71.2

## Input I have this molecule here, COc1cc(C2CC(c3cccc(Nc4ccncc4)c3)=NN2c2ccc(Cl)cc2)cc(OC)c1OC (stereo not given) , and I need its recorded growth.
## Output 105

## Input Need growth of CCCCCCCCCCCCCCCC(=O)OC[C@@]1(O)C[C@@]23CC[C@@H]4C(C)(C)CCC[C@@]4(C)[C@@H]2CC[C@H]1C3 , thanks.
## Output -79.1

## Input I'd like to know its growth. The molecule in question is CNC(=O)NCC1OC(n2cnc3c(NC(=O)Nc4ccccc4)ncnc32)C(O[Si](C)(C)C(C)(C)C)C1O[Si](C)(C)C(C)(C)C (stereo not given)
## Output 0.332

## Input Can you share its growth? I mean this molecule: CN1CCN(c2c(F)cc(NC3=C(Cl)C(=O)c4ncccc4C3=O)cc2F)CC1
## Output -11.3

## Input # input molecule: Cc1ccc2nc3c(cc2c1)CSc1nnc(-c2ccc[nH]c2=S)n1N3 ; wanted: its growth
## Output 92.5

## Input What value of growth has been recorded for this entry: Cc1ccc(C2CC(c3cccc(Nc4ccncc4)c3)=NN2c2ccccc2)cc1 (stereo not given)
## Output -78

## Input So what's the measured growth for this one? CC1(C)CCCN1CCCN1c2ccccc2Sc2ccc(Cl)cc21
## Output 33.3

## Input Report growth for O=C1Nc2ccccc2/C1=N/c1nc(-c2ccc(Cl)cc2)cs1 please.
## Output 59.1

## Input Recorded growth of CCn1cc(C2NC(=O)c3ccccc3N2)c2cccc(C)c21 (stereo not given) , please.
## Output 7.91

## Input Field request: growth | item: Fc1cc(C2=NNC(c3ccc[nH]3)C2)ccc1-n1ccc(C(F)(F)F)n1 (stereo not given)
## Output 98.7

## Input Given O=C(c1ccccc1)N1N=C(c2ccc(-n3ccc(C(F)(F)F)n3)cc2)CC1c1ccc[nH]1 (stereo not given) , state its recorded growth.
## Output 93.7
